Sourced from ChEMBL document CHEMBL4251627

Test: Activation of soluble guanylyl cyclase in Wistar rat aortic strips assessed as dilation of L-phenylephrine-induced contraction administered 5 mins before contraction by isometric transducer analysis
pEC50: −log10 of the molar value.
Param threshold (6) applies to pEC50; output T when value >= threshold, F when value < threshold.

{"columns": ["molecule", "class"],
 "data": [
  ["Nc1ccccc1NC(=O)c1ccc(CNC(=O)OCc2ccc(OCCOc3no[n+]([O-])c3S(=O)(=O)c3ccccc3)nc2)cc1", "T"],
  ["CN(CCCO[N+](=O)[O-])Cc1ccc(COC(=O)NCc2ccc(C(=O)Nc3ccccc3N)cc2)cn1.Cl.Cl.Cl", "F"],
  ["CN(Cc1ccc(COC(=O)NCc2ccc(C(=O)Nc3ccccc3N)cc2)cn1)Cc1no[n+]([O-])c1C(N)=O.Cl.Cl.Cl", "F"],
  ["COCCOc1no[n+]([O-])c1S(=O)(=O)c1ccccc1", "T"],
  ["Nc1ccccc1NC(=O)c1ccc(CNC(=O)OCc2ccc(OCCOc3no[n+]([O-])c3-c3ccccc3)nc2)cc1", "F"],
  ["CN(Cc1ccc(COC(=O)NCc2ccc(C(=O)Nc3ccccc3N)cc2)cn1)Cc1no[n+]([O-])c1C#N", "T"],
  ["CN(CCCCC(CO[N+](=O)[O-])O[N+](=O)[O-])Cc1ccc(COC(=O)NCc2ccc(C(=O)Nc3ccccc3N)cc2)cn1.Cl.Cl.Cl (stereo not drawn)", "T"]
]}

---

Molecular target: Histone deacetylase 2 (Homo sapiens, UniProt Q92769)
Sequence (Q92769 whole entry): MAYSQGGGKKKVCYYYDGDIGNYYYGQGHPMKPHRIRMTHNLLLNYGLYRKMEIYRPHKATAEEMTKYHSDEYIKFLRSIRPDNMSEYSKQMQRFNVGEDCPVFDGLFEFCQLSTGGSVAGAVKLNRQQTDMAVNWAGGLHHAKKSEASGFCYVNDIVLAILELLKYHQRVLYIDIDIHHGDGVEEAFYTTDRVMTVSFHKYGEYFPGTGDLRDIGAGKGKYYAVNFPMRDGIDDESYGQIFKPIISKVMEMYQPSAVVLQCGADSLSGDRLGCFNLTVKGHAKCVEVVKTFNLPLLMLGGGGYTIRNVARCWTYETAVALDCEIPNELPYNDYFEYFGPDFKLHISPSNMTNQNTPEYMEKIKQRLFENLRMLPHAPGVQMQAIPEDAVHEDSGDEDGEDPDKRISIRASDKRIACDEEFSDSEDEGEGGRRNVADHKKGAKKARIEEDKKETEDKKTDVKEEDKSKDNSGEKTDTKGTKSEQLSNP
Assay: Inhibition of FLAG-tagged HDAC2 (unknown origin) expressed in HEK293T cells using acetylated lysine side chain as substrate after 1 hr by colorimetric detection based assay

{"columns": ["compound", "result units", "IC50"],
 "data": [
  ["CN(CCCCC(CO[N+](=O)[O-])O[N+](=O)[O-])Cc1ccc(COC(=O)NCc2ccc(C(=O)Nc3ccccc3N)cc2)cn1.Cl.Cl.Cl (configuration not stated)", "nM", 390],
  ["Nc1ccccc1NC(=O)c1ccc(CNC(=O)OCc2ccc(OCCOc3no[n+]([O-])c3S(=O)(=O)c3ccccc3)nc2)cc1", "nM", 370]
]}

---

Molecular target: Histone deacetylase 3 (Homo sapiens)
Sequence (O15379 whole entry): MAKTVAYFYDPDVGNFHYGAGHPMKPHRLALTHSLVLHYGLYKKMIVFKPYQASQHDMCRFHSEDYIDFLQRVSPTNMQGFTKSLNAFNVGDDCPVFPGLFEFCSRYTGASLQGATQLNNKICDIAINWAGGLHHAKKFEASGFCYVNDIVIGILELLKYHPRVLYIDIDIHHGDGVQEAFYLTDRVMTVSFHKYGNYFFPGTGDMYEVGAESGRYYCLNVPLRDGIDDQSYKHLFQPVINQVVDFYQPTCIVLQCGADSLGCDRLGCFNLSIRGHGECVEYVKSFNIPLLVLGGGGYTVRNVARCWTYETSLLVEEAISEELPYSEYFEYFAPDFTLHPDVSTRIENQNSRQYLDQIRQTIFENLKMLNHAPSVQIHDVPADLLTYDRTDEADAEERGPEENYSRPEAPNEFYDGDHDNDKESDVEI
Assay: Inhibition of human FLAG-tagged HDAC3 expressed in HEK293T cells using acetylated lysine side chain as substrate after 1 hr by colorimetric detection based assay

{"columns": ["compound", "IC50 (nM)"],
 "data": [
  ["CN(CCCCC(CO[N+](=O)[O-])O[N+](=O)[O-])Cc1ccc(COC(=O)NCc2ccc(C(=O)Nc3ccccc3N)cc2)cn1.Cl.Cl.Cl (configuration not stated)", 1220],
  ["Nc1ccccc1NC(=O)c1ccc(CNC(=O)OCc2ccc(OCCOc3no[n+]([O-])c3S(=O)(=O)c3ccccc3)nc2)cc1", 1190]
]}

---

Assay: Drug metabolism in human HaCaT cells assessed as induction of NO release at 10 uM after 1 hr by DAF-2D-based FACS analysis
Format: ADME, cell-based

{"columns": ["molecule", "Drug metabolism"],
 "data": [
  ["CN(Cc1ccc(COC(=O)NCc2ccc(C(=O)Nc3ccccc3N)cc2)cn1)Cc1no[n+]([O-])c1C(N)=O.Cl.Cl.Cl", "Metabolite_Notdetected"],
  ["CN(CCCCC(CO[N+](=O)[O-])O[N+](=O)[O-])Cc1ccc(COC(=O)NCc2ccc(C(=O)Nc3ccccc3N)cc2)cn1.Cl.Cl.Cl (centres undefined)", "Metabolite_Detected"],
  ["CN(CCCO[N+](=O)[O-])Cc1ccc(COC(=O)NCc2ccc(C(=O)Nc3ccccc3N)cc2)cn1.Cl.Cl.Cl", "Metabolite_Notdetected"],
  ["Nc1ccccc1NC(=O)c1ccc(CNC(=O)OCc2ccc(OCCOc3no[n+]([O-])c3-c3ccccc3)nc2)cc1", "Metabolite_Detected"]
]}

---

Target: Histone deacetylase 1 (Homo sapiens, UniProt Q13547)
Sequence (Q13547 whole entry): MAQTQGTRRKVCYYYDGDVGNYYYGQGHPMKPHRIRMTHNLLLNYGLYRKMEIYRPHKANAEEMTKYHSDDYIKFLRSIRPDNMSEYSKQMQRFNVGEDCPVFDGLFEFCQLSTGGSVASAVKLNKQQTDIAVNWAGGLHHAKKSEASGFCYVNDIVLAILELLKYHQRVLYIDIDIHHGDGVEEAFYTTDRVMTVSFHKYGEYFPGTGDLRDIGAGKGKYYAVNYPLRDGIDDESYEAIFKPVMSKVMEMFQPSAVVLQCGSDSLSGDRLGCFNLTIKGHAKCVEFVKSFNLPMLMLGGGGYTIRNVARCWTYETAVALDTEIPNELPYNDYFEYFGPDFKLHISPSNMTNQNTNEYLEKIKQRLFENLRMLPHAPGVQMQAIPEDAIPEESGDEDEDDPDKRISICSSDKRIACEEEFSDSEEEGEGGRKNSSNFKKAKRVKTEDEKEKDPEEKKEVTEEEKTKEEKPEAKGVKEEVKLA
Experiment: Inhibition of human FLAG-tagged HDAC1 expressed in HEK293T cells using acetylated lysine side chain as substrate after 1 hr by colorimetric detection based assay
pIC50: −log10 of the molar value.
endpoint name: pIC50

{"columns": ["compound", "endpoint name", "measured result"],
 "data": [
  ["Nc1ccccc1NC(=O)c1ccc(CNC(=O)OCc2ccc(OCCOc3no[n+]([O-])c3S(=O)(=O)c3ccccc3)nc2)cc1", "pIC50", 5.99],
  ["CN(CCCCC(CO[N+](=O)[O-])O[N+](=O)[O-])Cc1ccc(COC(=O)NCc2ccc(C(=O)Nc3ccccc3N)cc2)cn1.Cl.Cl.Cl (configuration not stated)", "pIC50", 5.98]
]}
